# System: SF-295 CNS
# method: NCI-60 one-dose screen, 48 h
# settings: 10 µM unless noted
Compounds without any hit were thinned out: in the full panel of roughly 83,000, 20% have a hit. Calls of active or inactive are those of the source. Rule for the calls: active = growth percent below 10; inactive = the rest.
The reply should be one of these categories: active, inactive

Would you please look over these solved cases?
[[record]]
molecule = "O=C(NCCCNc1cc(-c2cn(-c3ccccc3)nc2-c2cccc(O)c2)ccn1)Nc1ccc(F)cc1"
discrete_label = "active"

[[record]]
molecule = "CNC(=O)c1c(NC(=O)c2ccc(F)cc2F)sc2c1CCC(=O)C2"
discrete_label = "active"

[[record]]
molecule = "CCCCCCCCCC[C@@H](C)[C@@H]1CC(=O)N[C@H]([C@@H](C)O)C(=O)N[C@@H](C)C(=O)N[C@H](C)C(=O)N[C@@H](CCC(N)=O)C(=O)N[C@H](Cc2ccc(O)cc2)C(=O)N[C@@H](C(C)CC)C(=O)O1 (some centres undefined)"
discrete_label = "inactive"


Would you kindly look at the next entry?
Tell me the recorded outcome of this test for C=C(C)C(=O)O[C@H]1C[C@@]2(C)OC(=CC2=O)/C(CO)=C\[C@H]2OC(=O)C(=C)[C@H]12 .
inactive

* * *

# System: COLO 205 colon
# method: NCI-60 one-dose screen, 48 h (100 = growth as untreated, 0 = no growth, -100 = all killed)
# settings: 10 µM unless noted
Compounds without any hit were thinned out: in the full panel of roughly 83,000, 20% have a hit.
Measured growth, listed per entry.
Report only the number, with the unit % understood.

Below, 5 compounds whose answers are already recorded.
[[record]]
compound = "C/C(Cc1ccc(Cl)cc1)=C(/c1ccccc1)c1ccc(OCCN)cc1"
unit_of_measure = "%"
data_value = 103

[[record]]
compound = "Cc1csc(Nc2cccc(Nc3nc(C)cs3)c2)n1"
unit_of_measure = "%"
data_value = 87.2

[[record]]
compound = "O=C(Nc1cc(F)cc2cccnc12)c1cnc(N2CCOCC2)cn1"
unit_of_measure = "%"
data_value = 18.1

[[record]]
compound = "CS(=O)(=O)c1ccc(-c2nn(-c3ccccc3)cc2/C=C/C(=O)c2ccc(Br)cc2)cc1"
unit_of_measure = "%"
data_value = 113

[[record]]
compound = "CS(=O)c1nccc(-c2c(-c3ccc(F)c(OCCc4ccc(F)cc4)c3)nc3sccn23)n1 (configuration not stated)"
unit_of_measure = "%"
data_value = 102


Data point: CCOC(=O)/C=c1\sc2n(c1=O)C1C(NN=2)N(CC)C(=O)N1CC (configuration not stated) ; growth = 51.3

Data point: COc1ccc(Cn2cc3c(c2-c2ccccc2)CCCc2cnoc2-3)cc1 ; growth = 40.9

Data point: Cn1c2ccccc2c2c3c(c4c5ccc(Br)cc5oc4c21)C(=O)N(O)C3=O ; growth = 86.7

Data point: CC(C)C(=O)Nc1ccc(-c2nc(-c3cccc(O)c3)c(-c3ccnc(Br)c3)[nH]2)cc1 ; growth = 59.3

Data point: COc1ccc(-c2oc3cc(O)cc(O)c3c(=O)c2OC)cc1O ; growth = 91.4

* * *

# Tested on: T-47D breast
# method: NCI-60 one-dose screen, 48 h (100 = growth as untreated, 0 = no growth, -100 = all killed)
# settings: 10 µM unless noted
The panel holds about 83,000 compounds, 20% with a hit somewhere; the sample as a whole holds those more often.
measured-endpoint: growth (%)
Report only the number, with the unit % understood.

Below, 5 molecules whose answers are already recorded.
[[record]]
chemical_structure = "NS(=O)(=O)c1ccc(Nc2nc(N/N=C/c3ccc(C(F)(F)F)cc3)nc(Nc3ccccc3)n2)cc1"
data_value = 31.3

[[record]]
chemical_structure = "O=C(CN1C(=O)CSC1=O)Nc1ccc(C(=O)/C=C/c2cc3ccccc3nc2Cl)cc1"
data_value = 58.7

[[record]]
chemical_structure = "CS(=O)(=O)c1nccc(-c2c(-c3ccc(F)c(OCCc4ccccc4)c3)nc3sccn23)n1"
data_value = -4.49

[[record]]
chemical_structure = "COc1cc(/C=N/n2cnc3oc(-c4ccccc4)cc3c2=N)cc(CN2CCN(C)CC2)c1O"
data_value = 99.4

[[record]]
chemical_structure = "C=C1C(=O)O[C@@H]2C[C@@H](C)[C@H](OC)CC(=O)[C@](C)(OC(C)=O)C[C@H](OC(=O)/C(C)=C\\C)[C@@H]12"
data_value = 46.9


Data point: O=c1[nH]c(CNc2ccc(NCc3c(-c4ccccc4)no[n+]3[O-])cc2)nc2c1cnn2-c1ccccc1 ; growth = 42.5

Data point: Nc1ccc(-c2nnc(SCc3ccc(O)c4ncccc34)o2)cc1 ; growth = -19.7

Data point: CC(=O)C1=NN(c2ccc(Cl)cc2)C(=O)CN1C ; growth = 96.6

Data point: CCCCCCNC(=O)Oc1ccc(/C(=C(/C)c2ccc(Cl)cc2)c2ccc(OCCN3CCCC3)cc2)cc1 ; growth = 41

Data point: C(=C(\C1=NCCN1)n1cnc2ccccc21)/c1cccc2ccccc12 ; growth = 82.4

Data point: C=C(C)[C@@H]1CC[C@]2(C(=O)NCCCN(CCC#N)CCC#N)CC[C@]3(C)[C@H](CC[C@@H]4[C@@]5(C)CCC(=O)C(C)(C)[C@@H]5CC[C@]43C)[C@@H]12 ; growth = 91.2

Data point: CS(=O)(=O)c1ccc2c(c1)c1c(n2Cc2ccc(Cl)cc2)CCCC1 ; growth = 51.9

Data point: COc1ccc2c(C3=C(c4c[nH]c5ccccc45)C(=O)N(O)C3=O)coc2c1 ; growth = 40.6

Data point: Nc1c(C(=O)c2ccccc2)sc2nc(-c3cnccn3)cc(-c3cccs3)c12 ; growth = 98.9

Data point: COc1ccc(C(=O)n2cc(C=O)c3ccccc32)cc1 ; growth = 106

* * *

# Test system: U251 CNS
# method: NCI-60 one-dose screen, 48 h
# settings: 10 µM unless noted
The panel holds about 83,000 compounds, 20% with a hit somewhere; the sample as a whole holds those more often. The source made the active and inactive calls. The calls were made as follows: active = growth percent below 10; inactive = the rest.
The reply should be one of these categories: active, inactive

Would you please look over these solved cases?
[[record]]
compound = "N/C(=N\\OC(=O)CSc1nc2ccccc2s1)c1ccc2ccccc2c1"
discrete_label = "inactive"

[[record]]
compound = "N#C/C(=C\\c1ccc(Cl)cc1Cl)C(N)=O"
discrete_label = "inactive"


Tell me the recorded outcome of this test for C/C(=N\NC(=O)CSc1nc2sc3c(c2c(=O)n1-c1ccccc1)CCC(C)C3)c1ccc(Cl)cc1 (centres undefined) .
inactive

Tell me the recorded outcome of this test for Cn1cc(-c2nn3c(=O)cc(-c4ccccc4)nc3s2)c2cc(F)ccc21 .
inactive

Tell me the recorded outcome of this test for CC1(C)CC[C@]2(C(=O)O)CC[C@]3(C)C(=CCC4[C@@]5(C)C[C@@H](O)[C@@H]6OC(c7cccc([N+](=O)[O-])c7)OC[C@@]6(C)C5CC[C@]43C)C2C1 (some centres undefined) .
inactive

* * *

# System: OVCAR-3 ovarian
# method: NCI-60 one-dose screen, 48 h (100 = growth as untreated, 0 = no growth, -100 = all killed)
# settings: 10 µM unless noted
Compounds without any hit were thinned out: in the full panel of roughly 83,000, 20% have a hit.
Think of 90% as a floor: if growth stands on it or above, it is true; beneath it, false.

[[record]]
compound = "COC[C@@]1(C)CC[C@]2(C)CC[C@]3(C)C(=CC[C@@H]4[C@@]5(C)CCCNC(C)(C)[C@@H]5CC[C@]43C)C2C1 (stereo partly drawn)"
discrete_label = "false"

[[record]]
compound = "COc1c([C@@H](CC(C)C)OC(C)=O)ccc2c1C(=O)OCc1cc(C)cc(O)c1O2"
discrete_label = "false"

[[record]]
compound = "C=C(C)[C@@H]1CC[C@]2(C(=O)ON)CC[C@]3(C)[C@H](CC[C@@H]4[C@@]5(C)C/C(=C/c6ccc(Br)cc6)C(=O)C(C)(C)[C@@H]5CC[C@]43C)[C@@H]12"
discrete_label = "false"

[[record]]
compound = "O=C(COc1ccc(/C=C2\\SC(=O)NC2=O)cc1)Nc1ccc(C(=O)/C=C/c2cc3ccccc3nc2Cl)cc1"
discrete_label = "false"

[[record]]
compound = "COc1ccc(-c2nn(-c3ccccc3)cc2/C=C/C(=O)c2ccc(NC(=O)CCCCCCC(=O)NO)cc2)cc1"
discrete_label = "true"

[[record]]
compound = "C/C(=C(/C)C1CC1CCN(C(=O)c1ccccn1)S(=O)(=O)c1ccc(C)cc1)C1CCCCC1 (stereo not drawn)"
discrete_label = "true"


Reported growth at or above 90%? NS(=O)(=O)c1ccc(-n2cc(CC=O)nn2)cc1
true

* * *

# Test system: SNB-19 CNS
# method: NCI-60 one-dose screen, 48 h (100 = growth as untreated, 0 = no growth, -100 = all killed)
# settings: 10 µM unless noted
This is part of a sample that, as a whole, favours compounds with a hit. Of some 83,000 tested, about 20% had one in any assay.
measured-endpoint: growth (%)
Report only the number, with the unit % understood.

[[record]]
compound = "CCOc1ccc2nc(NC(=O)Nc3ccccc3C)sc2c1"
measured_endpoint = "growth"
unit_of_measure = "%"
data_value = 53.8


Data point: CNC(=O)c1cc(Oc2ccc3nc(NC(=O)c4cc(C)cc(C)c4)sc3c2)ccn1 ; growth = 81.3

Data point: CC1CCc2c(sc3nc(SCC(=O)N/N=C/c4cccc(O)c4O)n(-c4ccccc4)c(=O)c23)C1 (centres undefined) ; growth = 98.1
